Reference source for all entries: ChEMBL document CHEMBL4808209

Biological target: Fibroblast growth factor receptor 1 (Homo sapiens)
Sequence (P11362 whole entry): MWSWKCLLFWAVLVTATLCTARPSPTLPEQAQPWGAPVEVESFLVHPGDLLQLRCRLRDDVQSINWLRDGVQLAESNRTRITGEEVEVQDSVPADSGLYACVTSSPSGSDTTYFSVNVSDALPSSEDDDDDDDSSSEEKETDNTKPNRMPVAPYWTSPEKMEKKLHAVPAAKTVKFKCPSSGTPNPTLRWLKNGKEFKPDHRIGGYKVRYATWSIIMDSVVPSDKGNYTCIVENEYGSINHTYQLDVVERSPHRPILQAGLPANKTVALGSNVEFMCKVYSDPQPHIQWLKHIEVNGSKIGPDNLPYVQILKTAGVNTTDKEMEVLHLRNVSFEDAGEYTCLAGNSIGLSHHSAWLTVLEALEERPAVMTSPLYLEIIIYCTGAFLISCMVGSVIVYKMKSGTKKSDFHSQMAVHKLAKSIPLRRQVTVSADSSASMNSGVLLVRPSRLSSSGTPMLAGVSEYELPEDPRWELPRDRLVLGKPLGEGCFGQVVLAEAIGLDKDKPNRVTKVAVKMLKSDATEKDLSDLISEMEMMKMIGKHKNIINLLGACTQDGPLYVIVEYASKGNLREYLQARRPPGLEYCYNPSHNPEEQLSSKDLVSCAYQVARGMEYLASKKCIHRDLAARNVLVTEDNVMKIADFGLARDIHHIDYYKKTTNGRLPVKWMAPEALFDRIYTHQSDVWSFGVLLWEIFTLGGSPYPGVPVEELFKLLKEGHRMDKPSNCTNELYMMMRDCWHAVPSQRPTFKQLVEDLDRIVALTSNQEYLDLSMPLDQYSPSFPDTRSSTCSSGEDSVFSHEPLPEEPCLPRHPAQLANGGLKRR
# pIC50 annotations
In plain terms, pIC50 is the concentration in mol/L turned into minus its base-10 logarithm.

compound: COc1cc(CCc2cnc3[nH]ccc3c2)cc(OC)c1
tested target: Fibroblast growth factor receptor 1 (Homo sapiens)
assay result: 7.08

[ask] Provide the documented pIC50 with Fibroblast growth factor receptor 1 (Homo sapiens) as the system for COc1ccc2nc(N3CCC(C(CC#N)n4cc(-c5ncnc6[nH]ccc56)cn4)CC3)sc2c1 (configuration not stated)
[reply] 8.22

---

Target: CYP2C9 (Homo sapiens, UniProt P11712)
Sequence (P11712 whole entry): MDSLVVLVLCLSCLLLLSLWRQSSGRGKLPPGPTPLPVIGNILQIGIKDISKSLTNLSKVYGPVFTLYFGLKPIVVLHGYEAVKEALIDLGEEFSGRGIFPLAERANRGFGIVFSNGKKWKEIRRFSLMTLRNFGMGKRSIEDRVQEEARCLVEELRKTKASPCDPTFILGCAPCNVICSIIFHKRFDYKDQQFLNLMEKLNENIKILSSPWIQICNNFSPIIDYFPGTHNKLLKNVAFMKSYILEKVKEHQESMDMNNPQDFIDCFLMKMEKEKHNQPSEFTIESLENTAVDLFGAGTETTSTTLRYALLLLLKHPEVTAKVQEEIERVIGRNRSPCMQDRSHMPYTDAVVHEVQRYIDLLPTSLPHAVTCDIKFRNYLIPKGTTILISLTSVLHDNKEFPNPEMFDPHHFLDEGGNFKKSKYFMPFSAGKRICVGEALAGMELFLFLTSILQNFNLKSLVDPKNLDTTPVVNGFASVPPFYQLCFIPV
Experiment: Inhibition of CYP2C9 in human liver microsomes using diclofenac as substrate substrate in presence of NADPH by LC-MS/MS analysis
Type: ADME
Settings: human, liver microsomes, probe diclofenac
pIC50: −log10 of the molar value.
experimental endpoint: pIC50

[ask] Endpoint output: pIC50 of CCN1C(=O)N(c2c(F)c(OC)cc(OC)c2F)Cc2cnc3[nH]c(CN4CCOCC4)cc3c21 . Value?
[reply] < 4.60

---

Experiment: Half life in cynomolgus monkey at 2 mg/kg, po or 0.5 mg/kg, iv administered as cassette dose measured after 24 hrs
Format: ADME, organism-based, Macaca fascicularis
Settings: in vivo
In this section, each of the compounds is paired with its reported half-life.
Answer with a number only, understood to be in h.

Example compounds with recorded half-life:
compound: COc1cc(OC)c(F)c(N2Cc3cnc4[nH]ncc4c3N(C)C2=O)c1F
assay result: 0.8
--
compound: CCN1C(=O)N(c2c(F)c(OC)cc(OC)c2F)Cc2cnc3[nH]c(CN4CCOCC4)cc3c21 [PEMIGATINIB]
assay result: 10
--
compound: COc1cc(OC)c(F)c(N2Cc3cnc4[nH]c(C(=O)N5CCN(C)CC5)cc4c3N(C)C2=O)c1F
assay result: 0.9
--
compound: CCN1C(=O)N(c2c(F)c(OC)cc(OC)c2F)Cc2cnc3c(c21)CC(=O)N3
assay result: 2.1

[ask] Any idea what half-life was measured for COc1cc(OC)c(F)c(N2Cc3cnc4[nH]ccc4c3N(C3CC3)C2=O)c1F ?
[reply] 1.1

[ask] Endpoint output: half-life of CCN1CCN(Cc2cc3c4c(cnc3[nH]2)CN(c2c(F)c(OC)cc(OC)c2F)C(=O)N4C)CC1 . Value?
[reply] 12

[ask] # lookup: half-life of COc1cc(OC)c(F)c(N2Cc3cnc4c(c3N(C)C2=O)CC(=O)N4)c1F
[reply] 2.8

---

Assay: Solubility of the compound in FaSSIF by HPLC analysis
Format: physicochemical
experimental endpoint: solubility (µg/mL)
Use µg/mL as the unit, but write only the number.

compound: CCN1C(=O)N(c2c(F)c(OC)cc(OC)c2F)Cc2cnc3c(c21)CC(=O)N3
solubility [µg/mL]: 10
--
compound: COc1cc(OC)c(F)c(N2Cc3cnc4[nH]ccc4c3N(C)C2=O)c1F
solubility [µg/mL]: 0.3
--
compound: CCN1CCN(Cc2cc3c4c(cnc3[nH]2)CN(c2c(F)c(OC)cc(OC)c2F)C(=O)N4C)CC1
solubility [µg/mL]: 942
--
compound: COc1cc(OC)c(F)c(N2Cc3cnc4[nH]c(C(=O)N(C)C)cc4c3N(C)C2=O)c1F
solubility [µg/mL]: 2

[ask] solubility lookup needed for COc1cc(OC)c(F)c(N2Cc3cnc4[nH]c(CN5CCOCC5)cc4c3N(C)C2=O)c1F , thanks.
[reply] 17

[ask] What measured solubility goes with COc1cc(OC)c(F)c(N2Cc3cnc4[nH]c(C(=O)N5CCN(C)CC5)cc4c3N(C)C2=O)c1F ?
[reply] 6
